# PROTOCOL: NCI Yeast Anticancer Drug Screen. Data for the mec2-1 strain (AID 157)
# STUDY_CONDITIONS: S. cerevisiae mec2-1 strain, at 50.0 µM, active compounds read high
# Method: Growth inhibition of yeast strains with defined genetic alterations is measured as a screen for potential anti-cancer activity. Selected strains with alterations in DNA damage repair or cell cycle control were exposed to compounds and growth inhibition was measured relative to vehicle treated controls. The strain used in this assay is mec2-1
The panel holds about 79,000 compounds, 15% with a hit somewhere; the sample as a whole holds those more often.
REPORTED_PROPERTY: growth inhibition (%)

* Cc1c2ccccc2nc(CS(=O)c2ccccc2)[n+]1[O-] (stereo unspecified) | 21.9
* Oc1ccccc1C=Nc1ccccc1 | 1.95
* Cc1ccc(NC(=O)Oc2ccccc2C(=O)OCc2ccccc2)cc1 | 7.1
* COc1cc(-c2[nH]ncc2CCCC(=O)Nc2ccccc2[N+](=O)[O-])ccc1O | -2.75
* O=C(O)/C=C/C(=O)N1Cc2cc3ccccc3nc2C1 | -31.1
* CCNC(=O)OCCN1C(=O)C2C3CCC(O3)C2C1=O (stereo unspecified) | 11.4
* NC(=O)C(N)C(N)=NCc1ccccc1 (stereo unspecified) | 1.35
* Nc1[nH]c(=O)ncc1-c1cccc(Cl)c1 | -4.15
* O=C(CCC(O)(C(=O)c1ccccc1)c1ccccc1)c1ccccc1 (stereo unspecified) | 9.5
* NCCNCCCCCCNC(=O)c1cccc2cc3ccccc3nc12 | -25.4
* CC(=O)OCC1OC(Nc2[nH]c(=O)n(C)c(=O)c2C(=O)CCl)C(OC(C)=O)C(OC(C)=O)C1OC(C)=O (stereo unspecified) | 18.5
* COc1ccc(NC(=O)/C(Cc2cc(=O)oc3cc(O)ccc23)=N\NC(C)(C)C)c(OC)c1 | 2.8
* CC(=O)OCCC1CC2c3[nH]c4ccccc4c3CCN2C1=O (stereo unspecified) | -7
* O=c1[nH]c2cc(Cl)ccc2nc1/C=C(\O)c1cccc(O)c1 | -5.05
* CCOC(=O)c1c(-c2ccc(OC)cc2)c(C#N)c(=S)n(C2OC(COC(C)=O)C(OC(C)=O)C(OC(C)=O)C2OC(C)=O)c1-c1ccccc1 (stereo unspecified) | 0.05
* NC(C(=O)O)C1C=CCCC1 (stereo unspecified) | -3.4
* N#CC(C(=O)/C(=N\NC(N)=O)C(C#N)c1ccc(Cl)cc1)c1ccc(Cl)cc1 (stereo unspecified) | -7.25
* Cc1c(C)c(C)c(S(=O)(=O)NCCNS(=O)(=O)c2c(C)c(C)c(C)c(C)c2C)c(C)c1C | -16.4
* Cc1ccc(SCc2ccc(Cl)cc2)nn1 | 0.3
* CC(C)c1ccc(O)c(C(C)(C)C)c1 | -29.8
* CC1CCC2OC23C(=O)C2OC2C(C(C)(C)O)C13C (stereo unspecified) | -2.35
* CCCCc1ccc(Nc2nc(=S)c3[nH]cnc3[nH]2)cc1 | 19.6
* O=C(O)C1CC2C3CCC2C1C3=O (stereo unspecified) | -26.3
* Cc1nn(C(N)=S)c(C)c1N=Nc1ccc(Cl)cc1 | -0.25
* Cc1nc([N+](=O)[O-])cn1CC(=N)N | -28.8
* CCOC(=O)C(/C(=N/NC(=O)OC)C(=O)Nc1ccc(C(C)=O)cc1)c1cnc2ccccc2n1 (stereo unspecified) | -40.9
